assay: Cytotoxicity CC50, PHH
Type: cell-based
reportedConditions: human, primary human hepatocytes (PHH)
Please respond with reported CC50 for every item in the list.

Summary for this molecule, COc1ccc(C[C@H](N)C(=O)N[C@H]2[C@@H](O)[C@H](n3cnc4c(N(C)C)ncnc43)O[C@@H]2CO)cc1 [Puromycin, reference compound] : CC50 is 1.6 µM

Summary for this molecule, CCN(CCN(C)C)C(=O)CNCc1cc(C(=O)O)ccn1 : CC50 is > 50 µM

Summary for this molecule, CCOC(=O)c1ccnc(CNCC(=O)N(CC)CCN(C)C)c1 : CC50 is > 50 µM

----------
assayedTarget: KDM5B (Homo sapiens, UniProt Q9UGL1)
Sequence (Q9UGL1 whole entry): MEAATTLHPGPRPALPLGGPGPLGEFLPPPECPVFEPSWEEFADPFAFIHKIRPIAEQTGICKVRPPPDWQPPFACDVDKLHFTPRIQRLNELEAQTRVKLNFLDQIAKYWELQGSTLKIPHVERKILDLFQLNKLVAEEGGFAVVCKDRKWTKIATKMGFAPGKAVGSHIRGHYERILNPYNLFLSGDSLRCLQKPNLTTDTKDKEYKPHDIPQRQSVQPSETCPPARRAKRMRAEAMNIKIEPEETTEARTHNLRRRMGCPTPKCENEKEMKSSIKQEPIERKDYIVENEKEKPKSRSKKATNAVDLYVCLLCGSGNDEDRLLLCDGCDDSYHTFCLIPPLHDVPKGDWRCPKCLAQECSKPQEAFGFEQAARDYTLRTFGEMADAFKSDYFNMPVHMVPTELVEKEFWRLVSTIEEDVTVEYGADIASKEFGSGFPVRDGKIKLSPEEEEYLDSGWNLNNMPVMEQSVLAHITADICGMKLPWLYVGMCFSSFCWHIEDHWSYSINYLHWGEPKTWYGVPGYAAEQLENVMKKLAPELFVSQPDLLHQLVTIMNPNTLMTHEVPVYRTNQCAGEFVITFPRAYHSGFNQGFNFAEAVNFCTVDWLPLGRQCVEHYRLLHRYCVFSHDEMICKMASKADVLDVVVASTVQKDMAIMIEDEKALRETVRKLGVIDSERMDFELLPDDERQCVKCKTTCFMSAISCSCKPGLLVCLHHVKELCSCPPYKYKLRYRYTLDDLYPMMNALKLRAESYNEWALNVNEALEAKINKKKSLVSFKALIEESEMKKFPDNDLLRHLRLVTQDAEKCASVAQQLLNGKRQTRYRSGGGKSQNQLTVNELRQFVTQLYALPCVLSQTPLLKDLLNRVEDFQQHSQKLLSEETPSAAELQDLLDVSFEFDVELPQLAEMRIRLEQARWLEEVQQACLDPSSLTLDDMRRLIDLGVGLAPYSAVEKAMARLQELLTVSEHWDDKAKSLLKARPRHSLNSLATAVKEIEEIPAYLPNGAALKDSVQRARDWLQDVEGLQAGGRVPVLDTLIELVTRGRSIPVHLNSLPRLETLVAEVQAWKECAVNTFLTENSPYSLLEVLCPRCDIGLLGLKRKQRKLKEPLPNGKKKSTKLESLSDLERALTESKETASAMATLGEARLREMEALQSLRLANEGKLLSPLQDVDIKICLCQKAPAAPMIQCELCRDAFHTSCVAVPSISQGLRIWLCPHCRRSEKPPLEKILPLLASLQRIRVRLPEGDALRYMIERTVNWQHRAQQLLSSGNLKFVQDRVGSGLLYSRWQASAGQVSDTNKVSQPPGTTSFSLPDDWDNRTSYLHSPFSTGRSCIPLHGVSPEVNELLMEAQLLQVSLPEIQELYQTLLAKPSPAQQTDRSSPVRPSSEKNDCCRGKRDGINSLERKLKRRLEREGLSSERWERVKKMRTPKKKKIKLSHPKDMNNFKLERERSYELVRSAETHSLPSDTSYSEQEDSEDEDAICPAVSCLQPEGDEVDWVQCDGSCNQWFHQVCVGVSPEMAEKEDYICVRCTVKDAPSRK
experimentalEndpoint: pIC50
For clarity, pIC50 is expressed as the negative log10 of concentration in mol/L.

Reported KDM5B (Homo sapiens, UniProt Q9UGL1) pIC50 for item CCN(CCN(C)C)C(=O)CNCc1cc(C(=O)O)c(Br)cn1 [GS-444] was 5.56
